System Under Test: T1, human CD112R antigen protein huCD112R-His (Acro Biosysterm, PVG-H52H4) (human, UniProt Q6DKI7 41-171)
T1 construct: purchased; also called human antigen protein; not shown: His tag
T1 sequence (looked up): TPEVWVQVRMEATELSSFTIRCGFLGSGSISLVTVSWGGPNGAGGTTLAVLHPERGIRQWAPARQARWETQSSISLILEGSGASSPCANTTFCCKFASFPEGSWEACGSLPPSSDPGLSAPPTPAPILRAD
Assay Protocol: ELISA, huCD112R-His coated on plate
Reported EC50 values follow for various binders
Give the value, in units of nM, as a plain number.

Example cases with answers are listed next.
Fill in EC50 for record C116 (antibody, human IgG1, kappa, V domains shown) VH: EVKLVESGGGLVQPGGSLKLSCAVSGFTFSSYTMSWVRQTPEKRLELVAKISNSGGSTNYPDTVKGRFTLSRDNVKNTLYLQMSSLKSEDTAIYYCTRYSWDVYAMDYWGQGTSVTVSS VL: DIQMTQSPASLSASVGETVIITCRASENIYSYLAWYQQKQGKSPHLLVYNAETLVEGVPSRFSGSGSATQFSLKINSLQPEDFGTYYCQHHYGDPTFGGGTKLEIKR
0.025

Determine its reported EC50: C12 (antibody, human IgG1, kappa, V domains shown) VH: EVQLVASGGGLVKPGGSLKLSCAASGFTFSDYYMYWVRQTPEKRLEWVATISDGGGYTYYPDSVKGRFTISRDNDRNSLYLQMSSLKSEDTAMYYCGREDLWGQGTSVTVSS VL: DIQMTQSPSSLSASLGERVSLTCRASQDIGSSLNWLQQEPDGTVKRLIYATSRLDSGVPKRFSGSRSGSDYSLTISSLESEDFVDYYCLQYASFPYTFGGGTKLEIKR
0.155

Give EC50 for the following binder: C115 (antibody, human IgG1, kappa, V domains shown) VH: EVQLQQSGAELVKPGASVKLSCTASGFNIEDTYIHWVKRRPEQGLEWIGGIDPAIGNTLYASKFQDMATITADTSSSTAYMQLSSLTSGDTAVYYCARERVYSNTLYYAMDYWGQGTSVTVSS VL: DIVLTQSPASLVVSLGQRATISCRASKSVSISGYSYMHWYQQKPGQPPKLLIYLASNLESGVPARFSGSGSGTDFTLNIHPVEAEDAATYYCQHSRELPPTFGGGTNLEIKR
0.029

Identify the reported EC50 for the following entry. C36 (antibody, human IgG1, kappa, V domains shown) VH: QIQLVQSGPELKKPGETVKISCKASGYTFTTYGMSWVKQAPGKGLKWMGWINTYSGVPTYADDFKGRFAFSLETSASNAYLQINNLKNEDTATYFCARELPFTTIIGTKDYWGQGTTLTVSS VL: DIVLIQSPATLSVTPGDSVSLSCRASQFISNNLHWYQQKSHESPRLLIKYASQSISGIPSRFSGGGSGTDFTLTVNSVETEDFGMYFCQQSNSWPHTFGGGTKLEIKR
0.219

Moving on to the next binder.
Respond only with EC50 recorded for C113 (antibody, human IgG1, kappa, V domains shown) VH: EVQLQQSGPELVKPGSSVKISCKASGYTFTDYNLDWMKQSHGSSLEWIGAMSPNNGATSYNQKFKGKATLTVDKSSSTAYMELRSLTSEDSAVYYCARWDSNSWYFDVWGTGTTVTVSS VL: DIVMTQSQKFMSTSVGDRVSITCKASQIVRTAVDWYQQKSGQSPKALIYSASTRHTGVPDRFTGSGSGTDFTLTIDNVQSEDLAEYFCLQHWNYPYTFGGGTKLEIKR
0.038
